# Test system: Colletotrichum acutatum
# PROTOCOL_SUMMARY: Antifungal activity against Colletotrichum acutatum assessed as growth inhibition at 2 mg/ml at 25 degC by agar well diffusion bioassay
# Type: functional
# CONDITION: read-out: GI
Quick list: inhibition of growth at 2000 µg/mL per entry.

Some solved entries appear below for comparison.
{"MOLECULE": "COC(=O)Nc1nc2ccccc2[nH]1 [CARBENDAZIM]", "inhibition of growth at 2000 µg/mL": "60.3%"}
{"MOLECULE": "CC(=O)OC(C1COc2ccc3c(=O)cc(-c4ccccc4)oc3c21)C(C)(C)O (stereo not given) [TEPHROAPOLLIN-F]", "inhibition of growth at 2000 µg/mL": "31.9%"}
{"MOLECULE": "COc1ccc2c(=O)cc(-c3ccccc3)oc2c1/C=C/C(C)(C)O [LANCEOLATIN-A]", "inhibition of growth at 2000 µg/mL": "15.2%"}
{"MOLECULE": "CC(=O)O[C@@H]1C(C)(C)OC(=O)[C@]12COc1ccc3c(=O)cc(-c4ccccc4)oc3c12 [(+)-GLABRATEPHRIN]", "inhibition of growth at 2000 µg/mL": "26.4%"}

Would you kindly look at the next entry?
inhibition of growth at 2000 µg/mL recorded for this molecule, CC(=O)O[C@@H]1C(C)(C)OC(=O)[C@@]12COc1ccc3c(=O)cc(-c4ccccc4)oc3c12 [ISOGLABRATEPHRIN] , is 25.3%

---

# Test system: Pestalotiopsis sp.
# PROTOCOL_SUMMARY: Antifungal activity against Pestalotiopsis sp. assessed as growth inhibition at 1 mg/ml at 25 degC by agar well diffusion bioassay
# Format: functional
# CONDITION: read-out: GI
# if value of inhibition of growth at 1000 µg/mL reaches 8%, tag Met; if it stays below, tag Not met

{"COMPOUND": "CC(=O)OC(C1COc2ccc3c(=O)cc(-c4ccccc4)oc3c21)C(C)(C)O (stereo not given)", "CLASS_LABEL": "Met"}
{"COMPOUND": "COC(=O)Nc1nc2ccccc2[nH]1", "CLASS_LABEL": "Met"}

Prompt: Confirm if inhibition of growth at 1000 µg/mL reported for the compound CC(=O)O[C@@H]1C(C)(C)OC(=O)[C@@]12COc1ccc3c(=O)cc(-c4ccccc4)oc3c12 is 8% or above.
Completion: Not met

Prompt: Assess whether reported inhibition of growth at 1000 µg/mL for COc1ccc2c(=O)cc(-c3ccccc3)oc2c1/C=C/C(C)(C)O sits at 8% or higher.
Completion: Met

---

# Tested on: Alternaria alternata
# PROTOCOL_SUMMARY: Antifungal activity against Alternaria alternata assessed as growth inhibition at 2 mg/ml at 25 degC by agar well diffusion bioassay
# Format: functional
# CONDITION: read-out: GI
Values of inhibition of growth at 2000 µg/mL greater than or equal to 10% map to true; values below map to false.

{"COMPOUND": "CC(=O)O[C@@H]1C(C)(C)OC(=O)[C@@]12COc1ccc3c(=O)cc(-c4ccccc4)oc3c12 [ISOGLABRATEPHRIN]", "SYSTEM_NAME": "Alternaria alternata", "CLASS_LABEL": "false"}
{"COMPOUND": "CC(=O)OC(C1COc2ccc3c(=O)cc(-c4ccccc4)oc3c21)C(C)(C)O (stereo not given) [TEPHROAPOLLIN-F]", "SYSTEM_NAME": "Alternaria alternata", "CLASS_LABEL": "true"}
{"COMPOUND": "COC(=O)Nc1nc2ccccc2[nH]1 [CARBENDAZIM]", "SYSTEM_NAME": "Alternaria alternata", "CLASS_LABEL": "true"}

Prompt: Dear colleague, could you confirm whether COc1ccc2c(=O)cc(-c3ccccc3)oc2c1/C=C/C(C)(C)O [LANCEOLATIN-A] has inhibition of growth at 2000 µg/mL at or above 10%?
Completion: false
